tested on: Vero E6 infected with SARS-CoV-2; experiment: inhibition of SARS-CoV-2 cytopathic effect; higher = more antiviral protection, active = above 15; conditions: 10000 nM; 48 h
Classes to choose from: TRUE for active, FALSE for inactive

Incoming: Outcome? COc1cc2nc(N3CCCN(C)CC3)nc(NC3CCN(Cc4ccccc4)CC3)c2cc1OC
Outgoing: FALSE

Incoming: Outcome? O=c1ccc2cc(O[C@@H]3O[C@H](CO)[C@@H](O)[C@H](O)[C@H]3O)c(O)cc2o1
Outgoing: FALSE

Incoming: Outcome? CC(=O)O[C@H]1C[C@@H]2CC[C@@H]3[C@H](CC[C@@]4(C)[C@H]3C[C@H](N3CC[N+](C)(C)CC3)[C@@H]4OC(C)=O)[C@@]2(C)C[C@@H]1N1CC[N+](C)(C)CC1
Outgoing: FALSE

Incoming: Outcome? COC1CCN(C(=O)c2cc(Cc3n[nH]c(=O)c4ccccc34)ccc2F)CC1
Outgoing: FALSE

Incoming: Outcome? O=C(NO)c1ccc2[nH]c(=O)c(CCCc3ccccc3)nc2c1
Outgoing: FALSE

Incoming: Outcome? NCCCC[C@H](NC(=O)[C@@H](Cc1cc(Br)c(O)c(Br)c1)NC(=O)N1CCC(N2Cc3ccccc3NC2=O)CC1)C(=O)N1CCN(c2ccncc2)CC1
Outgoing: FALSE

Incoming: Outcome? COc1ccc(CNCc2cccc3ccccc23)cc1
Outgoing: FALSE

Incoming: Outcome? Cc1ccc(O)c([C@H](CCN(C(C)C)C(C)C)c2ccccc2)c1
Outgoing: FALSE

Incoming: Outcome? O=C1NC(=O)C(c2cnc3ccccn23)=C1c1cn2c3c(cc(F)cc13)CN(C(=O)N1CCCCC1)CC2
Outgoing: FALSE

Incoming: Outcome? CCCS(=O)(=O)Nc1ccc(F)c(C(=O)c2c[nH]c3ncc(-c4ccc(Cl)cc4)cc23)c1F
Outgoing: FALSE

Incoming: Outcome? O=C(NCCCN1CCCCCC1)C(c1ccccc1)C1CCCCC1 (stereo not given)
Outgoing: FALSE

Incoming: Outcome? Oc1cccc(Nc2ncc(F)c(Nc3cccc(O)c3)n2)c1
Outgoing: FALSE

Incoming: Outcome? OC[C@H]1NCC[C@@H](O)[C@@H]1O
Outgoing: FALSE

Incoming: Outcome? O=C1CCc2cc(OCCCCc3nnnn3C3CCCCC3)ccc2N1
Outgoing: FALSE

Incoming: Outcome? Cn1cc(C(F)(F)F)nc1-c1ccc(OCC(O)CNCCOc2ccc(O)c(C(N)=O)c2)cc1 (stereo not given)
Outgoing: FALSE

Incoming: Outcome? CN1C(=O)OC(C)(C)C1=O
Outgoing: FALSE

Incoming: Outcome? C[n+]1ccc(C(=O)NCc2ccccc2)cc1 [enisamium-iodide]
Outgoing: FALSE

Incoming: Outcome? c1ccc2c(CC3=NCCN3)cccc2c1
Outgoing: FALSE

Incoming: Outcome? CCOCC(O)COc1ccc(NC(=O)CC[S+](C)C)cc1 (stereo not given)
Outgoing: FALSE

Incoming: Outcome? CCc1c(C(=O)C(N)=O)c2c(OCC(=O)O)cccc2n1Cc1ccccc1
Outgoing: FALSE

Incoming: Outcome? CCC(=O)Nc1cccc(Oc2nc(Nc3ccc(N4CCN(C)CC4)cc3OC)ncc2Cl)c1
Outgoing: FALSE

Incoming: Outcome? CC(C)(C)C(=O)C(Oc1ccc(Cl)cc1)n1ccnc1 (stereo not given)
Outgoing: FALSE

Incoming: Outcome? N[C@@H](C[C@@H](F)C(=O)O)C(=O)O
Outgoing: FALSE

Incoming: Outcome? CCCCC/N=c1\ccn(Cc2ccccc2)c2ccccc12
Outgoing: FALSE

Incoming: Outcome? COc1c(O[C@@H]2O[C@H](CO)[C@@H](O)[C@H](O)[C@H]2O)cc2c(c1OC)-c1ccc(SC)c(=O)cc1[C@@H](NC(C)=O)CC2 [thiocolchicoside]
Outgoing: FALSE

Incoming: Outcome? COc1cc(/C=C2\CCC/C(=C\c3ccc(O)c(OC)c3)C2=O)ccc1O
Outgoing: TRUE

Incoming: Outcome? CC(C)(Oc1ccc(C2CC2(Cl)Cl)cc1)C(=O)O (stereo not given) [ciprofibrate]
Outgoing: FALSE

Incoming: Outcome? N#C[C@H](O[C@@H]1O[C@H](CO[C@@H]2O[C@H](CO)[C@@H](O)[C@H](O)[C@H]2O)[C@@H](O)[C@H](O)[C@H]1O)c1ccccc1
Outgoing: FALSE

Incoming: Outcome? CC(C)(C)C(=O)OCOC(=O)[C@@H]1N2C(=O)[C@@H](/N=C/N3CCCCCC3)[C@H]2SC1(C)C
Outgoing: FALSE

Incoming: Outcome? C[C@H]1[C@@H](O)O[C@@H]2O[C@@]3(C)CC[C@H]4[C@H](C)CC[C@@H]1[C@@]24OO3
Outgoing: FALSE

Incoming: Outcome? CC[C@@H]([C@H](C)O)n1ncn(-c2ccc(N3CCN(c4ccc(OC[C@@H]5CO[C@@](Cn6cncn6)(c6ccc(F)cc6F)C5)cc4)CC3)cc2)c1=O
Outgoing: FALSE

Incoming: Outcome? COC(=O)C1=C(C)NC(C)=C(C(=O)OCC(C)C)C1c1ccccc1[N+](=O)[O-] (stereo not given)
Outgoing: FALSE

Incoming: Outcome? OC[C@H]1O[C@H](O[C@]2(CCl)O[C@H](CCl)[C@@H](O)[C@@H]2O)[C@H](O)[C@@H](O)[C@H]1Cl
Outgoing: FALSE

Incoming: Outcome? O=C(Nc1cccc(C(F)(F)F)c1)Nc1cc(S(=O)(=O)NC2CC2)ccc1-c1ccsc1
Outgoing: FALSE

Incoming: Outcome? COc1ccc(-c2cc(=O)c3c(O)c(OC)c(O)cc3o2)cc1OC
Outgoing: FALSE
